- EXPERIMENTAL SYSTEM: Acetylcholinesterase (Homo sapiens)
- ASSAY: Acetylcholinesterase (AChE) small molecule antagonists: colormetric cell-based qHTS assay (AID 1347395); note: nearly all actives have a fitted effect of over 30% in size
- CONDITION NOTES: SH-SY5Y cells AChE activity, colorimetric (Ellman); series mostly up to 115 µM
- From the text: National Center for Advancing Translational Sciences [NCATS] Division of Preclinical Innovation [DPI] U.S. Environmental Protection Agency [EPA] National Institutes of Environmental Health Sciences [NIEHS] National Toxicology Program [NTP] U.S. Food and Drug Administration [FDA] Acetylcholinesterase (AChE) is the primary cholinesterase in the body that hydrolyzes a key neurotransmitter, acetylcholine. Inhibition of AChE activity can lead to neurotoxicity. […]
Inconclusive results are not listed. Activity calls are given as the source filed them. Calls come from the whole dose curve.
Outcome codes: active, inactive

>  <COMPOUND>
CO/N=C(\C(=O)N[C@@H]1C(=O)N2C(C(=O)O)=C(CSc3nc(=O)c(O)nn3C)CS[C@H]12)c1csc(N)n1

>  <ASSIGNED LABEL>
inactive

$$$$
>  <COMPOUND>
O=C1Nc2ccc(Cl)cc2[C@@](C#CC2CC2)(C(F)(F)F)O1

>  <ASSIGNED LABEL>
inactive

$$$$
>  <COMPOUND>
Cc1cc(O)c(C(C)(C)C)cc1C(C)(C)C

>  <ASSIGNED LABEL>
inactive

$$$$
>  <COMPOUND>
O=C(CS)OCCOC(=O)CS

>  <ASSIGNED LABEL>
inactive

$$$$
>  <COMPOUND>
CCc1ccc(O)c(OC)c1

>  <ASSIGNED LABEL>
inactive

$$$$
>  <COMPOUND>
O=C(O)CNC(=O)CNC(=O)CNC(=O)CSC(=O)c1ccccc1

>  <ASSIGNED LABEL>
inactive

$$$$
>  <COMPOUND>
CCCC(=O)OC[C@@H](OC(=O)CCC)[C@@H](OC(=O)CCC)[C@H](Cn1c2nc(=O)[nH]c(=O)c-2nc2cc(C)c(C)cc21)OC(=O)CCC

>  <ASSIGNED LABEL>
inactive

$$$$
>  <COMPOUND>
CC(=O)Nc1cccc(C)c1

>  <ASSIGNED LABEL>
inactive

$$$$
>  <COMPOUND>
Cc1ccco1

>  <ASSIGNED LABEL>
inactive

$$$$
>  <COMPOUND>
Nc1nc(-c2ccccc2)cs1

>  <ASSIGNED LABEL>
inactive

$$$$
>  <COMPOUND>
CCc1ccc(C=O)cc1

>  <ASSIGNED LABEL>
inactive

$$$$
>  <COMPOUND>
ON=C1CCCC1

>  <ASSIGNED LABEL>
inactive

$$$$
>  <COMPOUND>
Cc1ncc([C@@H](CCCCCCc2ccc3c(n2)NCCC3)CC(=O)O)cn1

>  <ASSIGNED LABEL>
active

$$$$
>  <COMPOUND>
NC(=O)NC1N=C([O][Al])NC1=O (stereo not given)

>  <ASSIGNED LABEL>
inactive

$$$$
>  <COMPOUND>
CC(=O)[C@H]1[C@H](C#N)C[C@H]2[C@@H]3CC=C4C[C@@H](O)CC[C@]4(C)[C@H]3CC[C@@]21C

>  <ASSIGNED LABEL>
inactive

$$$$
>  <COMPOUND>
COC(=O)C1=C(C)NC(C)=C(C(=O)OC(C)C)C1c1cccc2nonc12 (stereo not given)

>  <ASSIGNED LABEL>
inactive

$$$$
>  <COMPOUND>
Cc1cccc(N(C)C(=S)Oc2ccc3c(c2)CCC3)c1

>  <ASSIGNED LABEL>
inactive

$$$$
>  <COMPOUND>
COc1ccc2cccc(CCNC(C)=O)c2c1

>  <ASSIGNED LABEL>
inactive

$$$$
>  <COMPOUND>
Nc1cnn([C@@H]2O[C@H](CO)[C@@H](O)[C@H]2O)c(=O)n1

>  <ASSIGNED LABEL>
inactive

$$$$
>  <COMPOUND>
COc1ccccc1OCC(O)CN1CCN(CC(=O)Nc2c(C)cccc2C)CC1 (stereo not given)

>  <ASSIGNED LABEL>
inactive

$$$$
>  <COMPOUND>
CC(C)CCCCCCCCCCCCCCC(=O)O

>  <ASSIGNED LABEL>
inactive

$$$$
>  <COMPOUND>
C[C@@H](c1ncncc1F)C(O)(Cn1cncn1)c1ccc(F)cc1F (stereo not given in full)

>  <ASSIGNED LABEL>
inactive

$$$$
>  <COMPOUND>
O=C(O)COCC(=O)O

>  <ASSIGNED LABEL>
inactive

$$$$
>  <COMPOUND>
CN1C(=O)OC(C)(C)C1=O

>  <ASSIGNED LABEL>
inactive

$$$$
>  <COMPOUND>
Oc1c(Cl)cc(Cl)c(Cl)c1Cc1c(O)c(Cl)cc(Cl)c1Cl

>  <ASSIGNED LABEL>
inactive

$$$$

* * *

- ASSAY: qHTS assay to test for compound auto fluorescence at 460 nm (blue) in HepG2 cells (AID 720687)
- CONDITION NOTES: autofluorescence 405/460 nm, 1 h; series mostly up to 46 µM
The source made the active and inactive calls. The call rests on the fitted dose curve; in most records, active means well fitted curve in the direction sought with a large enough effect in the repeat runs; inconclusive means weak or mixed curves; inactive means flat fitted curve, though single readings scatter.

>  <COMPOUND>
Cc1ccc2c(c1)[C@]13CCCC[C@@H]1[C@H](C2)N(C)CC3

>  <outcome>
inactive

$$$$
>  <COMPOUND>
COc1cc(C[C@H](C)N)c(OC)cc1Br

>  <outcome>
inactive

$$$$
>  <COMPOUND>
CC[C@@H](O)C(C[C@@H](C)N(C)C)(c1ccccc1)c1ccccc1

>  <outcome>
inactive

$$$$
>  <COMPOUND>
CN1C2CCC1CC(OC(c1ccccc1)c1ccc(Cl)cc1)C2 (stereo not given)

>  <outcome>
inactive

$$$$
>  <COMPOUND>
CCC(=O)O[C@H]1[C@@H](N2CCCCC2)C[C@H]2[C@@H]3CC[C@H]4C[C@H](OC(C)=O)[C@@H](N5CCCCC5)C[C@]4(C)[C@H]3CC[C@@]21C

>  <outcome>
inactive

$$$$

* * *

- EXPERIMENTAL SYSTEM: Acetylcholinesterase (Homo sapiens) (UniProt P22303)
- Sequence (P22303 whole entry, looked up): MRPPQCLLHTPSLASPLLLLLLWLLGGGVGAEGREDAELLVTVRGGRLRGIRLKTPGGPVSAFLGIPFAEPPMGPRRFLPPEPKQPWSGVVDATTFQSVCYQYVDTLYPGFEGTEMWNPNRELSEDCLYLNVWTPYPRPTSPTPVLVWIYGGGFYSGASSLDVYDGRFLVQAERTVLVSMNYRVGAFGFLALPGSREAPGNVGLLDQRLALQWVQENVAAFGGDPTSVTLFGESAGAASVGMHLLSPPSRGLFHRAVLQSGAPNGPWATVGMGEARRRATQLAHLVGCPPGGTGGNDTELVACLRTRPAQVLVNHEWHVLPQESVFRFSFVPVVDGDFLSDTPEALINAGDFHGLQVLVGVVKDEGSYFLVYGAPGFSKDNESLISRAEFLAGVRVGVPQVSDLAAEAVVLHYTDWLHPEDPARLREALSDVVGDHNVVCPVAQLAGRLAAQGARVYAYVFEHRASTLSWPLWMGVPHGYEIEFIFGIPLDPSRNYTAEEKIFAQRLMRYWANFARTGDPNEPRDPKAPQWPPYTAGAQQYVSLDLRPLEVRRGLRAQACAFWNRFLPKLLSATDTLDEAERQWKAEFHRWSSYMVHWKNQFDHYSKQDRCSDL
- ASSAY: Acetylcholinesterase (AChE) small molecule antagonists: colormetric cell-based qHTS assay (AID 1347395); note: nearly all actives have a fitted effect of over 30% in size
- CONDITION NOTES: SH-SY5Y cells AChE activity, colorimetric (Ellman); series mostly up to 115 µM
Records with an inconclusive call do not appear. Activity calls are given as the source filed them. Calls come from the whole dose curve.
Outcome codes: active, inactive

>  <COMPOUND>
O=Cc1cccc(Br)c1

>  <ASSIGNED LABEL>
inactive

$$$$
>  <COMPOUND>
O=C1C=CC(=O)N1c1ccc(Cc2ccc(N3C(=O)C=CC3=O)cc2)cc1

>  <ASSIGNED LABEL>
inactive

$$$$
>  <COMPOUND>
CCN(CC)CCOc1ccccc1C(=O)CCc1ccccc1

>  <ASSIGNED LABEL>
inactive

$$$$
>  <COMPOUND>
Cc1cccc(CN2CCN(C(c3ccccc3)c3ccc(Cl)cc3)CC2)c1 (stereo not drawn)

>  <ASSIGNED LABEL>
inactive

$$$$
>  <COMPOUND>
O=[N+]([O-])c1ccc(Cl)cc1Cl

>  <ASSIGNED LABEL>
inactive

$$$$
>  <COMPOUND>
Nc1ccc(NCCO)c([N+](=O)[O-])c1

>  <ASSIGNED LABEL>
active

$$$$
>  <COMPOUND>
CCCCCCCCCCCCN(CCCCCCCCCCCC)CCCCCCCCCCCC

>  <ASSIGNED LABEL>
inactive

$$$$
>  <COMPOUND>
OCCN1CN(CCO)CN(CCO)C1

>  <ASSIGNED LABEL>
inactive

$$$$
>  <COMPOUND>
N#Cc1ccc(C/C(=N/NC(=O)Nc2ccc(OC(F)(F)F)cc2)c2cccc(C(F)(F)F)c2)cc1

>  <ASSIGNED LABEL>
inactive

$$$$
>  <COMPOUND>
COc1ccnc(CS(=O)c2nc3ccc(OC(F)F)cc3[nH]2)c1OC (stereo not drawn)

>  <ASSIGNED LABEL>
inactive

$$$$
>  <COMPOUND>
CCCCCCCCCCCCCCCCOP(=O)([O-])OCC[N+](C)(C)C

>  <ASSIGNED LABEL>
inactive

$$$$
>  <COMPOUND>
OCC(F)(F)F

>  <ASSIGNED LABEL>
inactive

$$$$
>  <COMPOUND>
CCCCCCCCCCc1ccccc1

>  <ASSIGNED LABEL>
inactive

$$$$
>  <COMPOUND>
CC(=O)OC(C)C[N+](C)(C)C (stereo not drawn)

>  <ASSIGNED LABEL>
inactive

$$$$
>  <COMPOUND>
CCN1/C(=C/C=C/c2sc3ccccc3[n+]2CC)Sc2ccccc21

>  <ASSIGNED LABEL>
active

$$$$
>  <COMPOUND>
O=C1OC(=O)c2cc(Oc3ccc4c(c3)C(=O)OC4=O)ccc21

>  <ASSIGNED LABEL>
inactive

$$$$
>  <COMPOUND>
CCCCNCCCC

>  <ASSIGNED LABEL>
inactive

$$$$
>  <COMPOUND>
COc1cc(C(C)=O)ccc1OCCCN1CCC(c2noc3cc(F)ccc23)CC1

>  <ASSIGNED LABEL>
active

$$$$
>  <COMPOUND>
CCOC(=O)C(C)Oc1ccc(Oc2nc3ccc(Cl)cc3o2)cc1 (stereo not drawn)

>  <ASSIGNED LABEL>
inactive

$$$$
>  <COMPOUND>
CC(C(=O)O)c1ccc2c(c1)[nH]c1ccc(Cl)cc12 (stereo not drawn)

>  <ASSIGNED LABEL>
inactive

$$$$
>  <COMPOUND>
CC(=O)c1cccnc1

>  <ASSIGNED LABEL>
inactive

$$$$
>  <COMPOUND>
NC(=O)c1ccccc1[N+](=O)[O-]

>  <ASSIGNED LABEL>
inactive

$$$$
>  <COMPOUND>
Cc1ccc(C)c(N)c1

>  <ASSIGNED LABEL>
inactive

$$$$
>  <COMPOUND>
O=S(=O)(O)c1cc(I)c(O)c2ncccc12

>  <ASSIGNED LABEL>
inactive

$$$$
>  <COMPOUND>
O=C(Oc1cccc2cccnc12)c1ccccc1

>  <ASSIGNED LABEL>
inactive

$$$$
>  <COMPOUND>
Clc1cc(Cl)c2c(c1)N=C1CCCCCN1C2

>  <ASSIGNED LABEL>
active

$$$$
>  <COMPOUND>
C[C@@H](O)[C@H]1C(=O)N2C(C(=O)O)=C(S[C@@H]3CN[C@H](CNS(N)(=O)=O)C3)[C@H](C)[C@H]12

>  <ASSIGNED LABEL>
inactive

$$$$
>  <COMPOUND>
COC(OC)(C(=O)c1ccccc1)c1ccccc1

>  <ASSIGNED LABEL>
inactive

$$$$
>  <COMPOUND>
C=C(C)C(=O)OCCC[Si](Cl)(Cl)Cl

>  <ASSIGNED LABEL>
inactive

$$$$
>  <COMPOUND>
CCCCCOC(=O)CCCCC

>  <ASSIGNED LABEL>
inactive

$$$$
>  <COMPOUND>
NC(=O)c1ncn([C@@H]2O[C@H](CO)[C@@H](O)[C@H]2O)c1O

>  <ASSIGNED LABEL>
inactive

$$$$
>  <COMPOUND>
CC1(C)S[C@@H]2[C@H](N=CN3CCCCCC3)C(=O)N2[C@H]1C(=O)O

>  <ASSIGNED LABEL>
inactive

$$$$
>  <COMPOUND>
C=C(C)[C@H]1CC=C(C)CC1

>  <ASSIGNED LABEL>
inactive

$$$$
>  <COMPOUND>
CCO[Si](C)(C)OCC

>  <ASSIGNED LABEL>
inactive

$$$$
>  <COMPOUND>
CN(C)CCOc1ccccc1Cc1ccccc1

>  <ASSIGNED LABEL>
inactive

$$$$
>  <COMPOUND>
OCC(CO)n1cnc(-c2ccc(F)cc2)c1-c1ccnc(Oc2ccccc2)n1

>  <ASSIGNED LABEL>
inactive

$$$$
>  <COMPOUND>
O=S(O)CO

>  <ASSIGNED LABEL>
inactive

$$$$
>  <COMPOUND>
CCCCC(CC)COCCO (stereo not drawn)

>  <ASSIGNED LABEL>
inactive

$$$$
>  <COMPOUND>
C=CCSCC1Nc2cc(Cl)c(S(N)(=O)=O)cc2S(=O)(=O)N1 (stereo not drawn)

>  <ASSIGNED LABEL>
inactive

$$$$
>  <COMPOUND>
Cc1cccc(C)c1NC(=O)C(C)N (stereo not drawn)

>  <ASSIGNED LABEL>
inactive

$$$$
>  <COMPOUND>
O=C(OCc1ccccc1)C(=O)OCc1ccccc1

>  <ASSIGNED LABEL>
inactive

$$$$
>  <COMPOUND>
CC(C)(C)C1CCCCC1=O (stereo not drawn)

>  <ASSIGNED LABEL>
inactive

$$$$
>  <COMPOUND>
Cc1cccc(N(C)C)c1

>  <ASSIGNED LABEL>
inactive

$$$$
>  <COMPOUND>
O=C(O)Cc1sc(-c2ccccc2)nc1-c1ccc(Cl)cc1

>  <ASSIGNED LABEL>
inactive

$$$$
>  <COMPOUND>
CCCCN(CCCC)CC(O)c1cc(Cl)cc2c1-c1ccc(Cl)cc1/C2=C/c1ccc(Cl)cc1 (stereo not drawn)

>  <ASSIGNED LABEL>
inactive

$$$$
>  <COMPOUND>
COc1ccc(C(=O)Nc2ccccc2)cc1[N+](=O)[O-]

>  <ASSIGNED LABEL>
active

$$$$
>  <COMPOUND>
CCCCN(CCCC)C(C(N)=O)c1ccc(OC)cc1 (stereo not drawn)

>  <ASSIGNED LABEL>
inactive

$$$$
>  <COMPOUND>
C=CS(=O)(=O)O

>  <ASSIGNED LABEL>
inactive

$$$$
>  <COMPOUND>
O=C(O)Cc1ccc(CCNS(=O)(=O)c2ccc(Cl)cc2)cc1

>  <ASSIGNED LABEL>
inactive

$$$$
>  <COMPOUND>
CCCCCCCCCCCCOCCOS(=O)(=O)O

>  <ASSIGNED LABEL>
inactive

$$$$
>  <COMPOUND>
Oc1ccc(-c2ccc(O)cc2)cc1

>  <ASSIGNED LABEL>
inactive

$$$$
>  <COMPOUND>
CN(C)CCCO[C@@H]1[C@H]2OC(C)(C)O[C@H]2O[C@@H]1C(O)CO (stereo partly drawn)

>  <ASSIGNED LABEL>
inactive

$$$$
>  <COMPOUND>
CCCC(=O)OCC

>  <ASSIGNED LABEL>
inactive

$$$$
